# subject_of_test: UniProt:C7BLE4
# Sequence (C7BLE4 entry or part of it): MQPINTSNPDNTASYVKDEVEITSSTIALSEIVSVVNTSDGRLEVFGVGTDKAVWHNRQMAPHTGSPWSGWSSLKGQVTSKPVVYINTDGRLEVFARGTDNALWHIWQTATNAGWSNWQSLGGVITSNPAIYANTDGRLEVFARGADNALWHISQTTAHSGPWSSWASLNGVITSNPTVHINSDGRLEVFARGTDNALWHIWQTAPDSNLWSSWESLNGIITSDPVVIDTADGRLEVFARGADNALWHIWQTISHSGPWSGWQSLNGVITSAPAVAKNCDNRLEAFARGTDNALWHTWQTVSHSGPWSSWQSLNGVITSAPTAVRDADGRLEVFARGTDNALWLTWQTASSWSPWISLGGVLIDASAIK
# assay_text: SPR competitive inhibition of PHL binding to α-L-fucoside sensor chip
# experimental_setup: IC50 L-fucose / IC50 ligand
PotencyL-Fuc reference

{"columns": ["molecule_smiles", "subject_of_test", "parameter", "experimental_value"],
 "data": [
  ["C[C@@H]1O[C@@H](CCn2cc(COc3c4cc(C(C)(C)C)cc3Cc3cc(C(C)(C)C)cc(c3OCc3cn(CC[C@@H]5O[C@@H](C)[C@@H](O)[C@@H](O)[C@@H]5O)nn3)Cc3cc(C(C)(C)C)cc(c3OCc3cn(CC[C@@H]5O[C@@H](C)[C@@H](O)[C@@H](O)[C@@H]5O)nn3)Cc3cc(C(C)(C)C)cc(c3OCc3cn(CC[C@@H]5O[C@@H](C)[C@@H](O)[C@@H](O)[C@@H]5O)nn3)C4)nn2)[C@@H](O)[C@H](O)[C@@H]1O", "UniProt:C7BLE4", "PotencyL-Fuc", "1,853"]
]}

Given `C[C@@H]1O[C@@H](CCn2cc(COCC(COCc3cn(CC[C@@H]4O[C@@H](C)[C@@H](O)[C@@H](O)[C@@H]4O)nn3)(COCc3cn(CC[C@@H]4O[C@@H](C)[C@@H](O)[C@@H](O)[C@@H]4O)nn3)COCC(COCc3cn(CC[C@@H]4O[C@@H](C)[C@@H](O)[C@@H](O)[C@@H]4O)nn3)(COCc3cn(CC[C@@H]4O[C@@H](C)[C@@H](O)[C@@H](O)[C@@H]4O)nn3)COCc3cn(CC[C@@H]4O[C@@H](C)[C@@H](O)[C@@H](O)[C@@H]4O)nn3)nn2)[C@@H](O)[C@H](O)[C@@H]1O` , respond with its PotencyL-Fuc. 9,762

Give the value of PotencyL-Fuc reported for the following: `C[C@@H]1O[C@@H](CCn2cc(COc3c4cccc3Cc3cccc(c3OCc3cn(CC[C@@H]5O[C@@H](C)[C@@H](O)[C@@H](O)[C@@H]5O)nn3)Cc3cccc(c3OCc3cn(CC[C@@H]5O[C@@H](C)[C@@H](O)[C@@H](O)[C@@H]5O)nn3)Cc3cccc(c3OCc3cn(CC[C@@H]5O[C@@H](C)[C@@H](O)[C@@H](O)[C@@H]5O)nn3)C4)nn2)[C@@H](O)[C@H](O)[C@@H]1O` 2,029
